Assay: Half life of compound in PBS buffer at pH 7.4 at 50 ug/ml up to 72 hrs by RP-HPLC analysis
Format: physicochemical
Details: dose 50 µg/ml
Residues, ends and D or L forms follow the SMILES beside them. *: point of attachment. X2 = CC(=O)O[C@@]12CO[C@@H]1C[C@H](O)[C@@]1(C)C(=O)[C@H](O)C3=C(C)[C@@H](OC(=O)[C@H](OC(=O)OCc4ccc(N*)cc4)[C@@H](NC(=O)OC(C)(C)C(F)(F)F)c4ccccc4)C[C@@](O)([C@@H](OC(=O)c4cccc(F)c4)[C@H]21)C3(C)C
Reported Endpoint: half-life at 50 ug/ml

Per the records, this compound ( CC[C@H](C)[C@H](NC(=O)[C@H](C)NC(=O)[C@H](CCC(N)=O)NC(=O)[C@@H]1CCCN1C(=O)CNC(C)=O)C(=O)N[C@@H](C)C(=O)NCC(=O)N[C@@H](CCC(N)=O)C(=O)N[C@@H](CC(C)C)C(=O)Nc1ccc(COC(=O)O[C@@H](C(=O)O[C@H]2C[C@@]3(O)[C@@H](OC(=O)c4cccc(F)c4)[C@@H]4[C@]5(OC(C)=O)CO[C@@H]5C[C@H](O)[C@@]4(C)C(=O)[C@H](O)C(=C2C)C3(C)C)[C@@H](NC(=O)OC(C)(C)C(F)(F)F)c2ccccc2)cc1 (Ac-GPQAIAGQL-X2) ) has half-life at 50 ug/ml equal to > 72 h
